- Test System: the molecule itself
- Protocol Summary: co-transfection 1:1 in 293H, protein A pull-down, non-reducing SDS-PAGE densitometry; co-expressed with ScFv-Fc WT
Please go through the items and note down their proportion of Fc homodimer on SDS-PAGE.
Give bare numbers, in %.

Fc protein E357K/K370E/K392D/K409D/D399K (other, Monomer chain; also called Fc-mix13; Fc of mutation combination 4) GSGGGDKTHTCPPCPAPELLGGPSVFLFPPKPKDTLMISRTPEVTCVVVDVSHENPEVKFNWYVDGVEVHNAKTKPREEQYNSTYRVVSVLTVLHQDWLNGKEYKCKVSNKALPAPIEKTISKAKGQPREPQVYTLPPSREKMTKNQVSLTCLVEGFYPSDIAVEWESNGQPENNYDTTPPVLKSDGSFFLYSDLTVDKSRWQQGNVFSCSVMHEALHNHYTQKSLSLSPGK
28.7
Fc protein E356K/K439E (other, Monomer chain; also called Fc of mutation combination 2) GSGGGDKTHTCPPCPAPELLGGPSVFLFPPKPKDTLMISRTPEVTCVVVDVSHENPEVKFNWYVDGVEVHNAKTKPREEQYNSTYRVVSVLTVLHQDWLNGKEYKCKVSNKALPAPIEKTISKAKGQPREPQVYTLPPSRKEMTKNQVSLTCLVKGFYPSDIAVEWESNGQPENNYKTTPPVLDSDGSFFLYSKLTVDKSRWQQGNVFSCSVMHEALHNHYTQESLSLSPGK
41.1

Look up proportion of Fc homodimer on SDS-PAGE for this protein: Fc protein E357K/K370E (other, Monomer chain; also called Fc of mutation combination 3) GSGGGDKTHTCPPCPAPELLGGPSVFLFPPKPKDTLMISRTPEVTCVVVDVSHENPEVKFNWYVDGVEVHNAKTKPREEQYNSTYRVVSVLTVLHQDWLNGKEYKCKVSNKALPAPIEKTISKAKGQPREPQVYTLPPSREKMTKNQVSLTCLVEGFYPSDIAVEWESNGQPENNYKTTPPVLDSDGSFFLYSKLTVDKSRWQQGNVFSCSVMHEALHNHYTQKSLSLSPGK
47.5
